measurementProtocol: Plasma and Brain Levels after oral dosing
Assay type: in vivo, mouse
setupConditions: plasma; 60 mg/kg oral, 1 hr post-dose, male mouse, fed; read-out: Plasma con.
recordedEndpoint: concentration at 1 h (µM)
Answers are plain numbers, in µM.

Lab note: measured concentration at 1 h of C[C@H]1c2ccc(F)c(CCC(C)(C)O)c2C[C@H](CO)N1C(=O)Cc1c(F)cccc1Cl was 9.08

* * *

measurementProtocol: Plasma and Brain Levels after oral dosing
Format: in vivo, mouse
setupConditions: male, mouse; unbound plasma concentration, 10 mg/kg oral, 1 hr; read-out: Cu, plasma
recordedEndpoint: concentration at 1 h
The answer should read as a number with its unit following.

Lab note: measured concentration at 1 h of C[C@H]1c2ccc(F)c(CCC(C)(C)O)c2C[C@H](CO)N1C(=O)Cc1c(F)cccc1Cl [Example 7] was 17.1 nM

* * *

measurementProtocol: Plasma and Brain Levels after oral dosing
Type: in vivo, mouse
setupConditions: male, mouse; ratio Cu,brain vs Cu,plasma, 60 mg/kg oral, 1 hr
recordedEndpoint: Kp uu at 1 h
Answers are plain numbers.

Lab note: measured Kp uu at 1 h of C[C@H]1c2ccc(F)c(CCC(C)(C)O)c2C[C@H](CO)N1C(=O)Cc1c(F)cccc1Cl was 0.248

* * *

targetOrSystem: human D1 receptor (Homo sapiens (Human), UniProt P21728)
Sequence (P21728 whole entry): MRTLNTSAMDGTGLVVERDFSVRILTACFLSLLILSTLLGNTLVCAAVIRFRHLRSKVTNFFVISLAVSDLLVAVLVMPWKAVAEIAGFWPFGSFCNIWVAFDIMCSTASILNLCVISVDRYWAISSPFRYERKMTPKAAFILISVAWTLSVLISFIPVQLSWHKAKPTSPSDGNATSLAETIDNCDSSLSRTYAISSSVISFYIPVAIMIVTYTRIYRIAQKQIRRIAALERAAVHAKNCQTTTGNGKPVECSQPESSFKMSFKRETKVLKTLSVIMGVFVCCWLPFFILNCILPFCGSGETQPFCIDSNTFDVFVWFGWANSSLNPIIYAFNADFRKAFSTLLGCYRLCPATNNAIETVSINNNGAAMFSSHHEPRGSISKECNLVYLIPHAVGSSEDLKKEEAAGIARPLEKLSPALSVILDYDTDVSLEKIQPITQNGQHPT
measurementProtocol: Human D1 Receptor PAM Assay (cAMP HTRF, potentiator mode)
Format: cell-based
setupConditions: HEK293 cells expressing human D1; with EC20 dopamine (12 nM final); cAMP; listed as 2-(2,6-Dichlorophenyl)-1-[(1S,3R)-3-(hydroxymethyl)-5-[trans-2-(1-hydroxy-1-meth); read-out: Abs EC50
recordedEndpoint: pEC50
Numbers only, as −log10 of the molar value.

1) C[C@H]1c2cccc([C@@H]3C[C@H]3C(C)(C)O)c2C[C@H](CO)N1C(=O)Cc1c(Cl)cccc1Cl (relative stereo) [Example 2] ... 8.08

Kindly review the next compound as well.
Lab note: measured pEC50 of C[C@H]1c2cccc([C@@H]3C[C@H]3C(C)(C)O)c2C[C@H](CO)N1C(=O)Cc1c(Cl)cccc1Cl (relative stereo) [Example 1] was 7.92
